- Tested on: Rattus norvegicus
- test_method_notes: Anticonvulsant activity in po dosed Sprague-Dawley rat assessed as protection against maximal electroshock-induced seizures
- Type: functional
measured_attribute: ED50 (mg/kg)

>>> observed_result("O=C1CC2(CCc3ccccc3C2)C(=O)N1CCN1CCN(c2cccc(C(F)(F)F)c2)CC1 (stereo not drawn)")
205
>>> observed_result("O=C1NC2(CCc3ccccc3C2)C(=O)N1CN1CCN(CCO)CC1 (stereo not drawn)")
14.9
>>> observed_result("O=C1NC2(CCc3ccccc3C2)C(=O)N1CN1CCOCC1 (stereo not drawn)")
10.7

###

- System: Rattus norvegicus
- test_method_notes: Anticonvulsant activity in Sprague-Dawley rat assessed as protection against maximal electroshock-induced seizures at 30 mg/kg po after 1 hr
- Type: functional
The source made the active and inactive calls. The calls are words filed in the database; no cut-off is given here.
measured_attribute: Activity

>>> observed_result("O=C1NC2(CCc3ccccc3C2)C(=O)N1CN1CCN(c2ccccc2)CC1 (stereo not given)")
"50%"
>>> observed_result("O=C1NC2(CCc3ccccc3C2)C(=O)N1CN1CCOCC1 (stereo not given)")
"50%"
>>> observed_result("O=C1CC2(CCc3ccccc3C2)C(=O)N1CN1CCN(c2cccc(Cl)c2)CC1 (stereo not given)")
"25%"
>>> observed_result("O=C1NC2(CCc3ccccc3C2)C(=O)N1CN1CCN(CCO)CC1 (stereo not given)")
"50%"
>>> observed_result("O=C1NC2(CCc3ccccc3C2)C(=O)N1CN1CCN(Cc2ccccc2)CC1 (stereo not given)")
"75%"
>>> observed_result("O=C1NC(=O)C(c2ccccc2)(c2ccccc2)N1")
"75%"
>>> observed_result("O=C1CC2(CCc3ccccc3C2)C(=O)N1CN1CCN(c2ccc(F)cc2)CC1 (stereo not given)")
"inactive"
>>> observed_result("O=C1CC2(CCc3ccccc3C2)C(=O)N1CN1CCN(CCO)CC1 (stereo not given)")
"inactive"
>>> observed_result("O=C1CC2(CCc3ccccc3C2)C(=O)N1CN1CCOCC1 (stereo not given)")
"25%"
>>> observed_result("O=C1CC2(CCc3ccccc3C2)C(=O)N1CN1CCN(c2cccc(C(F)(F)F)c2)CC1 (stereo not given)")
"75%"

###

- System: Rattus norvegicus
- test_method_notes: Anticonvulsant activity in po dosed Sprague-Dawley rat assessed as protection against maximal electroshock-induced seizures
- Format: functional
measured_attribute: ED50 (mg/kg)

>>> observed_result("O=C1CC2(CCc3ccccc3C2)C(=O)N1CCN1CCN(c2cccc(Cl)c2)CC1 (stereo unspecified)")
23
>>> observed_result("O=C1CC2(CCc3ccccc3C2)C(=O)N1CN1CCN(c2cccc(Cl)c2)CC1 (stereo unspecified)")
19.6
>>> observed_result("O=C1NC2(CCc3ccccc3C2)C(=O)N1CN1CCN(c2ccccc2)CC1 (stereo unspecified)")
1.88
>>> observed_result("O=C1CC2(CCc3ccccc3C2)C(=O)N1CN1CCN(c2cccc(C(F)(F)F)c2)CC1 (stereo unspecified)")
9

###

The compounds listed here are annotated with their Activity.
- Test system: Mus musculus
- test_method_notes: Neurotoxicity in ip dosed CF1 albino mouse assessed as dose required to cause toxicity after 0.5 hrs by rotarod test
- Format: organism-based
- measurement_setup: in vivo
measured_attribute: Activity

>>> observed_result("O=C1NC2(CCc3ccccc3C2)C(=O)N1CN1CCN(c2ccc(F)cc2)CC1 (stereo not given)")
"30 mg/kg"
>>> observed_result("O=C1NC2(CCc3ccccc3C2)C(=O)N1CN1CCN(c2cccc(Cl)c2)CC1 (stereo not given)")
"30 mg/kg"
>>> observed_result("O=C1NC2(CCc3ccccc3C2)C(=O)N1CN1CCN(c2ccccc2)CC1 (stereo not given)")
"300 mg/kg"
>>> observed_result("O=C1CC2(CCc3ccccc3C2)C(=O)N1CN1CCN(c2ccc(F)cc2)CC1 (stereo not given)")
"300 mg/kg"
>>> observed_result("O=C1NC(=O)C(c2ccccc2)(c2ccccc2)N1 [PHENYTOIN]")
"100 mg/kg"

###

The compounds listed here are annotated with their Activity.
- System: Mus musculus
- test_method_notes: Neurotoxicity in ip dosed CF1 albino mouse assessed as dose required to cause toxicity after 0.5 hrs by rotarod test
- Format: organism-based
- measurement_setup: in vivo
measured_attribute: Activity (mg/kg)

>>> observed_result("O=C1CC2(CCc3ccccc3C2)C(=O)N1CN1CCN(c2ccccc2)CC1 (stereo not given)")
100
>>> observed_result("O=C1CC2(CCc3ccccc3C2)C(=O)N1CN1CCN(c2ccccc2F)CC1 (stereo not given)")
300
>>> observed_result("O=C1NC2(CCc3ccccc3C2)C(=O)N1CN1CCOCC1 (stereo not given)")
100
>>> observed_result("O=C1NC2(CCc3ccccc3C2)C(=O)N1CN1CCN(c2cccc(C(F)(F)F)c2)CC1 (stereo not given)")
100
>>> observed_result("O=C1CC2(CCc3ccccc3C2)C(=O)N1CN1CCN(c2cccc(Cl)c2)CC1 (stereo not given)")
300

###

The compounds listed here are annotated with their Activity.
- Tested on: Rattus norvegicus
- test_method_notes: Anticonvulsant activity in Sprague-Dawley rat assessed as protection against maximal electroshock-induced seizures at 30 mg/kg po after 4 hrs
- Format: functional
measured_attribute: Activity (%)

>>> observed_result("O=C1CC2(CCc3ccccc3C2)C(=O)N1CN1CCN(CCO)CC1 (stereo not given)")
50
>>> observed_result("O=C1CC2(CCc3ccccc3C2)C(=O)N1CN1CCOCC1 (stereo not given)")
50
>>> observed_result("O=C1NC2(CCc3ccccc3C2)C(=O)N1CN1CCN(CCO)CC1 (stereo not given)")
100
>>> observed_result("O=C1CC2(CCc3ccccc3C2)C(=O)N1CN1CCN(c2cccc(Cl)c2)CC1 (stereo not given)")
50
>>> observed_result("O=C1CC2(CCc3ccccc3C2)C(=O)N1CN1CCN(c2ccc(F)cc2)CC1 (stereo not given)")
25
>>> observed_result("O=C1NC2(CCc3ccccc3C2)C(=O)N1CN1CCN(c2ccccc2)CC1 (stereo not given)")
100
>>> observed_result("O=C1NC2(CCc3ccccc3C2)C(=O)N1CN1CCOCC1 (stereo not given)")
100
>>> observed_result("O=C1NC(=O)C(c2ccccc2)(c2ccccc2)N1")
75
>>> observed_result("O=C1NC2(CCc3ccccc3C2)C(=O)N1CN1CCN(Cc2ccccc2)CC1 (stereo not given)")
50
>>> observed_result("O=C1CC2(CCc3ccccc3C2)C(=O)N1CN1CCN(c2cccc(C(F)(F)F)c2)CC1 (stereo not given)")
100

###

- test_method_notes: Neurotoxicity in po dosed Sprague-Dawley rat by rotarod test
- Type: toxicity, organism-based
- measurement_setup: in vivo
measured_attribute: TD50

>>> observed_result("O=C1NC2(CCc3ccccc3C2)C(=O)N1CN1CCOCC1 (stereo not drawn)")
"400 mg/kg"
>>> observed_result("O=C1CC2(CCc3ccccc3C2)C(=O)N1CN1CCN(c2cccc(C(F)(F)F)c2)CC1 (stereo not drawn)")
"> 250 mg/kg"
>>> observed_result("CCC1(C)CC(=O)NC1=O (stereo not drawn) [ETHOSUXIMIDE]")
"> 500 mg/kg"
>>> observed_result("O=C1NC(=O)C(c2ccccc2)(c2ccccc2)N1")
"> 100 mg/kg"
>>> observed_result("O=C1NC2(CCc3ccccc3C2)C(=O)N1CN1CCN(c2ccccc2)CC1 (stereo not drawn)")
"> 500 mg/kg"
>>> observed_result("O=C1CC2(CCc3ccccc3C2)C(=O)N1CN1CCN(c2cccc(Cl)c2)CC1 (stereo not drawn)")
"> 500 mg/kg"
>>> observed_result("O=C1CC2(CCc3ccccc3C2)C(=O)N1CN1CCOCC1 (stereo not drawn)")
"> 500 mg/kg"
>>> observed_result("O=C1NC2(CCc3ccccc3C2)C(=O)N1CN1CCN(CCO)CC1 (stereo not drawn)")
"> 300 mg/kg"

###

The molecules listed here are annotated with their Activity.
- Test system: Mus musculus
- test_method_notes: Neurotoxicity in ip dosed CF1 albino mouse assessed as dose required to cause toxicity after 4 hrs by rotarod test
- Format: organism-based
- measurement_setup: in vivo
measured_attribute: Activity (mg/kg)

>>> observed_result("O=C1CC2(CCc3ccccc3C2)C(=O)N1CN1CCN(c2ccc(F)cc2)CC1 (stereo not drawn)")
300
>>> observed_result("O=C1CC2(CCc3ccccc3C2)C(=O)N1CN1CCN(c2ccccc2)CC1 (stereo not drawn)")
300
>>> observed_result("O=C1NC2(CCc3ccccc3C2)C(=O)N1CN1CCN(c2ccc(F)cc2)CC1 (stereo not drawn)")
30
>>> observed_result("O=C1NC(=O)C(c2ccccc2)(c2ccccc2)N1")
100
>>> observed_result("O=C1NC2(CCc3ccccc3C2)C(=O)N1CN1CCN(c2ccccc2)CC1 (stereo not drawn)")
300
>>> observed_result("O=C1NC2(CCc3ccccc3C2)C(=O)N1CN1CCN(c2cccc(Cl)c2)CC1 (stereo not drawn)")
30
>>> observed_result("O=C1NC2(CCc3ccccc3C2)C(=O)N1CN1CCN(c2cccc(C(F)(F)F)c2)CC1 (stereo not drawn)")
30
>>> observed_result("O=C1CC2(CCc3ccccc3C2)C(=O)N1CN1CCN(c2cccc(C(F)(F)F)c2)CC1 (stereo not drawn)")
300
